Molecular target: glucose-6-phosphatase system (Rattus norvegicus, UniProt F7EWB7)
Construct: To prepare the microsomal fraction containing the glucose-6-phosphatase, fresh liver organs from male Wistar rats were used; from tissue; host or cells: liver of male Wistar rats, microsomal fraction
Sequence (F7EWB7 1-429): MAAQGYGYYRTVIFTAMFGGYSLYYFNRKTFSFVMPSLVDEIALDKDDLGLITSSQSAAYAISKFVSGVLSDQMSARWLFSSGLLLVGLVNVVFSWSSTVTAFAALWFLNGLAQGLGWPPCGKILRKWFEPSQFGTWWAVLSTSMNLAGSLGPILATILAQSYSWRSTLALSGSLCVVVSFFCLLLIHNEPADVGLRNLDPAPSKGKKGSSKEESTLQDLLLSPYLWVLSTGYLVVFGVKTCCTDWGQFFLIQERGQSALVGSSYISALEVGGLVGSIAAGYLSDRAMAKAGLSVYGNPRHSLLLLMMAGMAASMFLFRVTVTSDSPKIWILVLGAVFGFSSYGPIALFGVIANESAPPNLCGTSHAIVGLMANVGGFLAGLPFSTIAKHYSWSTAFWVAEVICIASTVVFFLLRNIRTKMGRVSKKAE
Assay: enzyme assay of glucose-6-phosphatase activity in liver microsomes (phosphate liberated from glucose-6-phosphate)
Format: biochemical, male Wistar rats
Conditions: rat liver microsomes, glucose-6-phosphate 1 mmol/l, pH 7.0, 20 min at room temperature
IC50 under 30 µM gets Satisfied, anything at or over 30 µM gets Not satisfied.

Study these solved cases before continuing.
* O=C(O[C@@H]1C[C@](OCCCc2ccc(Cl)cc2)(C(=O)O)C[C@H](O)[C@H]1O)c1ccccn1 [Example 4] | Satisfied
* O=C(/C=C/c1ccc(O)cc1)O[C@@H]1C[C@](OCc2cccs2)(C(=O)O)C[C@H](O)[C@H]1O [Example 2] | Not satisfied
* O=C(CCc1ccc(O)cc1)O[C@@H]1C[C@](OCCCc2ccc(Cl)cc2)(C(=O)O)C[C@@H](O)[C@H]1O [Example 44] | Satisfied
* C#CCO[C@@]1(C(=O)O)C[C@H](O)[C@@H](O)[C@H](OC(=O)/C=C/c2ccc(O)cc2)C1 [Example 3] | Not satisfied

Q: Is the reported IC50 for O=C(/C=C/c1ccc(O)cc1)O[C@@H]1C[C@](OCc2ccccc2)(C(=O)O)C[C@H](O)[C@H]1O [Example 1] strictly below 30 µM?
Ans: Not satisfied
